# Test system: HCT-15 colon
# PROTOCOL_DESCRIPTION: NCI tumour cell line growth inhibition, 48 h
Readings of TGI for the listed compounds

Reference set (5 entries):
Cc1ccc(-c2c(C#N)[n+](=O)c3cc(F)c(F)cc3n2[O-])cc1	3.75 µM
COC1=CC(=O)C(Br)=CC1=O	47 µM
Clc1ccc2nc3n[nH]c(Cl)c3nc2c1	> 100 µM
CCCCCCCCCCCCCCCCNCC(O)CN (stereo unspecified)	4.38 µM
O=C(/C=C/c1ccc(OCc2ccccc2)cc1)NCc1ccc(C(=O)NCc2ccccc2)cc1	> 100 µM

Note: attention shifts to another entry.
Test system HCT-15 colon; read-out TGI; what value for CCOc1cc(C(=O)O)c2c(ccc3ccc(OC)c(OC)c32)c1OC ?
> 100 µM

----------
# Tested on: PC-3 prostate
# PROTOCOL_DESCRIPTION: NCI tumour cell line growth inhibition, 48 h
Overview of recorded TGI for various compounds

Check out these entries, answers already filled in.
CC(=Nc1ccccc1)C1=C(O)C(Cc2cccc(F)c2)NC1=O (stereo unspecified)	> 100 µM
Cc1ccc(-c2c(C#N)[n+](=O)c3cc(F)c(F)cc3n2[O-])cc1	3.35 µM
C=CCOC(=O)c1c(C)n([O-])c2cc(Cl)c(Cl)cc2[n+]1=O	> 100 µM
O=C(N/N=C\c1cccs1)c1ccncc1	> 100 µM
C/C(=N\NC(=O)CC#N)C(CN1CCCCC1)C(c1ccccc1)c1c(O)c2ccccc2oc1=O (stereo unspecified)	> 100 µM
Cc1ccc(/C(O)=C/c2nc3cccnc3[nH]c2=O)cc1	> 100 µM
O=C1Nc2ccccc2/C1=C\c1cccc(/C=C2/C(=O)Nc3ccccc32)n1	3.31 µM
COC(=O)CCCC1(CCCC(=O)OC)CCCCCCCCC(CCCC(=O)OC)(CCCC(=O)OC)C(=O)C1=O	53.5 µM
COc1cccc(-n2ncc3c(N/N=C/c4ccc(C)cc4)ncnc32)c1	> 25 µM
COc1ccc(N2CN(C)CSC2=S)cc1	> 100 µM

What measured TGI goes with O=C(OCC1CCCN2CCCCC12)c1cccnc1 (stereo unspecified) ?
> 100 µM

----------
The entries below come with measured TGI values attached.
# Test system: HS 578T breast
# PROTOCOL_DESCRIPTION: NCI tumour cell line growth inhibition, 48 h

Oc1cc(O)c2c(c1)O[C@H](c1cc(O)c(O)c(O)c1)[C@@H](O)C2	> 100 µM

So what's the measured TGI for this one? O=C1OCC(c2ccc(O)cc2)=C1c1cc(O)c(O)c(O)c1
> 100 µM

Also check COc1cccc(Sc2ccc([N+](=O)[O-])c3no[n+]([O-])c23)c1
61.7 µM

And for COc1ccc(C(=O)c2c(-c3ccccc3NC(=O)C(F)(F)F)[nH]c3ccccc23)cc1 ?
46.9 µM

Also COc1cccc(-n2ncc3c(N/N=C/c4ccc(C)cc4)ncnc32)c1 , if possible.
> 25 µM

One more molecule: CN(C)C(=S)/N=c1\ssc(=S)n1Cc1cccs1
5.17 µM

Request: Cc1ccc(S(=O)(=O)/N=C2/N(C)CCCS2(=O)=O)cc1
> 100 µM

And the next one, O=C(NNS(=O)(=O)c1ccc(Br)cc1)c1ccc(Cl)cc1NC(=O)C12CC3CC(CC(C3)C1)C2 ?
40.7 µM

# repeat for O=C1Nc2ccccc2/C1=C\c1cccc(/C=C2/C(=O)Nc3ccccc32)n1
1.31 µM

Check Cc1nc2ccccc2c(=O)n1NC(=O)c1ccccc1[N+](=O)[O-] too.
> 100 µM

Queued: O=C(/C=C/c1ccc(OCc2ccccc2)cc1)NCc1ccc(C(=O)NCc2ccccc2)cc1
> 100 µM

----------
# Tested on: PC-3 prostate
# PROTOCOL_DESCRIPTION: NCI tumour cell line growth inhibition, 48 h
REPORTED_PROPERTY: TGI

O=C(/C=C/c1ccc2c(c1)OCO2)NCCc1ccco1	> 100 µM
O=C1OCC(c2ccc(O)cc2)=C1c1cc(O)c(O)c(O)c1	> 100 µM
COc1cc2c3c(n(CCCCNC(=O)OC(C)(C)C)c(=O)c2cc1OC)-c1cc2c(cc1C3=O)OCO2	> 100 µM

Request the reported TGI associated with Cn1c(=O)c2c(nc3n2CCC(=O)N3CCCCl)n(C)c1=O
> 100 µM

Another compound to check: CSc1c2c(C)n[nH]c2nn1-c1ccccc1
> 100 µM

----------
# Tested on: RXF-631 renal
# PROTOCOL_DESCRIPTION: NCI tumour cell line growth inhibition, 48 h
REPORTED_PROPERTY: TGI (µM)
Output spec: scalar in µM, unitless text.

Cc1ccc(NC(=O)C(=O)C(C(=O)c2ccc3ccccc3c2)C2OC(=O)c3ccccc32)c(C)c1 (stereo not given)	20.6

Would you mind telling me what TGI value was observed for Cc1cc(C)nc(NS(=O)(=O)c2ccc(Nc3c4ccccc4nc4c(C(=O)Nc5ccc(S(=O)(=O)Nc6cc(C)on6)cc5)ccc(Cl)c34)cc2)n1 ?
64.6

----------
Catalogue of GI50 readings, one per entry.
# Test system: UACC-62 melanoma
# PROTOCOL_DESCRIPTION: NCI tumour cell line growth inhibition, 48 h

Solved entries:
COc1ccc(-c2nsc3c2NC(=O)CC3c2ccc3c(c2)OCCO3)cc1 (configuration not stated)	0.482 µM
C=C(C)[C@@H]1CC[C@]2(COCCCNCCCN)CC[C@]3(C)[C@H](CC[C@@H]4[C@@]5(C)CC[C@H](OCCCN)C(C)(C)[C@@H]5CC[C@]43C)[C@@H]12	0.914 µM
COc1cc2c3c(n(CCCCNC(=O)OC(C)(C)C)c(=O)c2cc1OC)-c1cc2c(cc1C3=O)OCO2	> 100 µM

Query: GI50; subject: O=c1cc(-c2ccccc2)oc2ccc(OC/C(=N/O)c3ccc(F)cc3)cc12
5.5 µM

Okay, and COc1cc(OC)c(/C=C/C(=O)c2ccc(Nc3ncnc4ccccc34)cc2)c(OC)c1 ?
0.599 µM

And the next one, COc1cccc(OC(=O)c2ccc(C(F)(F)F)nc2Nc2c(C)cccc2Cl)c1 ?
17.3 µM

----------
# Test system: HCC-2998 colon
# PROTOCOL_DESCRIPTION: NCI tumour cell line growth inhibition, 48 h
Where a SMILES comes first, the peptide text is derived from it. [ ]: non-standard residue; d: D form. The star is where a group is joined. X28 = COC1=CC(=O)N(C(=O)[C@@H](O*)C(C)C)[C@H]1Cc1ccccc1; Bn2Val = CC(C)[C@@H](C(=O)*)N(Cc1ccccc1)Cc1ccccc1; NMeV = CN[C@H](C(=O)O)C(C)C; dNMeA = CN[C@H](C)C(=O)O
Each entry below carries its reported TGI.

Sample answers from the record:
CCNc1cc2oc(=O)cc(C(F)(F)F)c2cc1C	> 100 µM
COC12C=C/C(=C(/C(=O)OCCSc3ccnn3C)C(=O)CCCCCCCCC3(OC)C=C/C(=C(/C(=O)OCCSc4ccnn4C)C(=O)CCCCCCCC1)O3)O2	1.11 µM
O=S(=O)(c1ccccc1)c1nccs1	> 100 µM

Item O=C1CSC(c2ccc(-c3nc4ccccc4[nH]3)cc2)=N1 has what recorded TGI?
> 50 µM

How about this compound: COC1=CC(=O)c2c(cc(COP(N)(=O)N(CCCl)CCCl)n2C)C1=O (configuration not stated)
2.3 µM

Likewise for COC1=CC(=O)N(C(=O)[C@@H](OC(=O)[C@@H](C)N(C)C(=O)[C@@H]2CCCN2C(=O)[C@H](C(C)C)N(C)C(=O)[C@@H](NC(=O)[C@H](C(C)C)N(Cc2ccccc2)Cc2ccccc2)C(C)C)C(C)C)[C@H]1Cc1ccccc1 (Bn2Val-V[NMeV]P[dNMeA]-X28) ?
> 100 µM

Now the compound C=CC(C)(C)C1(CC(OC)OC)C(=O)N(C)c2ccccc21 (configuration not stated)
> 25 µM

----------
# Test system: TK-10 renal
# PROTOCOL_DESCRIPTION: NCI tumour cell line growth inhibition, 48 h
REPORTED_PROPERTY: TGI

Reference set (5 entries):
Nc1ncnc2c1sc(=S)n2-c1ccccc1	> 100 µM
CCCc1n[nH]c(=O)n1N1C(=O)C=CC1=O	> 100 µM
O=C(OCC1CCCN2CCCCC12)c1cccnc1 (stereo unspecified)	> 100 µM
COC12C=C/C(=C(/C(=O)OCCSc3ccnn3C)C(=O)CCCCCCCCC3(OC)C=C/C(=C(/C(=O)OCCSc4ccnn4C)C(=O)CCCCCCCC1)O3)O2	> 32.5 µM
COC1=CC(=O)C2C(C1=O)[C@@H]1c3ccccc3OC(C)(C)[C@H]21 (stereo partly specified)	38.6 µM

Which measured TGI value corresponds to CN(C)CCNC(=O)c1cccc2nc3ccc4cccnc4c3nc12 ?
0.688 µM

----------
# System: HCT-116 colon
# PROTOCOL_DESCRIPTION: NCI tumour cell line growth inhibition, 48 h
REPORTED_PROPERTY: TGI

Recorded TGI, per entry:
C#CCN(N=O)C(=O)NCCCCC(NC(=O)OCc1ccccc1)C(=O)OCc1ccccc1 (stereo not given)	> 100 µM
CCNc1cc2oc(=O)cc(C(F)(F)F)c2cc1C	> 100 µM
Nc1nc(Nc2ccc(Cl)cc2)sc1C(=O)c1c[nH]c2ccccc12	23.1 µM
Cc1c(N)nc([C@H](CC(N)=O)NC[C@H](N)C(N)=O)nc1C(=O)N[C@H](C(=O)N[C@H](C)[C@@H](O)CC(=O)N[C@H](C(=O)NC(O[C@@H]1O[C@@H](C)[C@@H](N)[C@@H](O)[C@H]1O)C(O)c1nc(-c2nc(C(=O)NCCCCN)cs2)cs1)[C@@H](C)O)[C@@H](O[C@@H]1O[C@@H](CO)[C@@H](O)[C@H](O)[C@@H]1O[C@H]1O[C@H](CO)[C@@H](O)[C@H](OC(N)=O)[C@@H]1O)c1c[nH]cn1 (stereo not given in full)	> 50 µM
Cc1ccc(S(=O)(=O)NC(=O)NCCc2ccc(O)c(O)c2)cc1	> 100 µM

# returns recorded TGI (system: HCT-116 colon) for CCCCOc1c(C(=O)O)cc(Br)cc1C(=O)O
> 100 µM
